STUDY_SYSTEM: Human immunodeficiency virus type 1 integrase (Human immunodeficiency virus 1)
PROCEDURE_TEXT: Inhibition of wild type HIV1 integrase 3'-processing activity using 5'-end 32P-labeled linear oligonucleotide as substrate preincubated for 30 mins
Kindly state IC50 for each of the entries shown.

Hey, quick one: what's IC50 for each of these?
1. Oc1ccc(Br)cc1/C=N/Nc1cccc2cccnc12
2. CCN(CC)c1ccc(/C=C2\CCC(/C=N/N=C/c3cccnc3)=C2N2CCOCC2)cc1
3. COc1ccccc1NS(=O)(=O)c1ccc(N/N=C(\C)c2ccccc2Br)c([N+](=O)[O-])c1
4. COc1cc(/C=N/Nc2ccc(S(=O)(=O)Nc3ccccc3C(=O)O)cc2[N+](=O)[O-])ccc1O
5. FC(F)(F)c1ccccc1/C=N/N1CCN(Cc2ccccc2)CC1
6. c1ccc(/N=N/C(=N/Nc2ccccc2)c2ccccc2)cc1
7. O=C(N/N=C/c1c(O)ccc2ccccc12)c1ccncc1
8. O=C(N/N=C/c1cc(Br)ccc1O)C1=NNC2CCCCC12 (stereo not given)

["> 100 µM", "> 100 µM", "> 100 µM", "> 100 µM", "> 100 µM", "> 100 µM", "> 100 µM", "29 µM"]

Hey, quick one: what's IC50 for each of these?
1. O=C(N/N=C/c1cc(Br)ccc1O)c1cccnc1
2. Cc1occc1C(=O)NN/C=C1/C(=O)N(c2ccccc2Cl)C(=O)c2ccccc21
3. O=C(COc1ccc(Cl)cc1Cl)N/N=C/c1cc(Br)ccc1O
4. Cc1nnc(NN)c2c1[nH]c1ccccc12
5. Cn1cccc1/C=N/N1CCN(Cc2ccccc2)CC1
6. COc1c(Cl)cc(Cl)cc1/C=N/NC(=O)c1ccncc1

["> 100 µM", "90 µM", "> 100 µM", "> 100 µM", "> 100 µM", "> 100 µM"]

Hey, quick one: what's IC50 for each of these?
1. O=C1C(O)=Cc2ccccc2/C1=N\Nc1ccc(Cl)cc1
2. C/C(=N\N1CCN(Cc2ccccc2Cl)CC1)c1ccc([N+](=O)[O-])cc1
3. CCNc1nc(NCC)nc(C(=O)NN)n1
4. CC/N=c1/scc(-c2cc(OC)ccc2OC)n1/N=C(\C)c1ccco1
5. CCOc1cccc(/C=N/NC(=O)c2n[nH]c3c2CCC3)c1O

1. > 100 µM
2. > 100 µM
3. < 100 µM
4. > 100 µM
5. > 100 µM

Please give the documented IC50 of `Oc1ccc(/C=N/N2CCN(c3ccccc3)CC2)cc1O` 69 µM

----------
STUDY_SYSTEM: Human immunodeficiency virus type 1 integrase (Human immunodeficiency virus 1, UniProt Q7ZJM1)
Sequence (Q7ZJM1 whole entry): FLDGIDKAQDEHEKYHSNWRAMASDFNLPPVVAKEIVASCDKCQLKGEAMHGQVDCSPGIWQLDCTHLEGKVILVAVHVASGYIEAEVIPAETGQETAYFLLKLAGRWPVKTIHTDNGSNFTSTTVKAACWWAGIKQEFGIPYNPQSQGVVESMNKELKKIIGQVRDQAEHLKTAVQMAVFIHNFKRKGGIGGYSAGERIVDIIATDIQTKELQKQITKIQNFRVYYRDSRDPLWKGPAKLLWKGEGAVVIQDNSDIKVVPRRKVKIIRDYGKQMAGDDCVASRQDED
PROCEDURE_TEXT: Inhibition of wild type HIV1 integrase strand transfer activity using 5'-end 32P-labeled linear oligonucleotide as substrate preincubated for 30 mins
Kindly state IC50 for each of the entries shown.

Solved cases (2 shown):
SMILES_STRUCTURE: CCOc1cccc(/C=N/NC(=O)c2n[nH]c3c2CCC3)c1O
READOUT_NAME: IC50
RESULT: > 100 µM
--
SMILES_STRUCTURE: COc1ccccc1NS(=O)(=O)c1ccc(N/N=C(\C)c2ccccc2Br)c([N+](=O)[O-])c1
READOUT_NAME: IC50
RESULT: > 100 µM

Shift focus to the following entry.
Please give the documented IC50 of `c1ccc(/N=N/C(=N/Nc2ccccc2)c2ccccc2)cc1` > 100 µM

Hey, just so you know, these numbers are from ChEMBL document CHEMBL2311445.
